system_name: T1, TNFR1 (Homo sapiens, UniProt P19438)
T1 chain: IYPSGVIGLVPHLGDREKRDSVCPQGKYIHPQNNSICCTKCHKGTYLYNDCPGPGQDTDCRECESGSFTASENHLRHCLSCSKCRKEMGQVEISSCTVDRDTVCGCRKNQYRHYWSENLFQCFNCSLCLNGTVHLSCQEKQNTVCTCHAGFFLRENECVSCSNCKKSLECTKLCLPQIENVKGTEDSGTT
assay_name: yeast display SC50
metric: apparent Kd (screen) (nM)

Take a look at these entries with their results.
* A106C (designed binder) MTLQELLREEALRRAEAEAFRYALELLAEKFPEQKEYLLDLAEEIESQIRSLSGVDVEDVRKFLDKEWAWVKELLAEHPAELAEVEAARAARLAELRAEVEAKVAC | 1.16
* V71N (designed binder) MTLQELLREEALRRAEAEAFRYALELLAEKFPEQKEYLLDLAEEIESQIRSLSGVDVEDVRKFLDKEWAWNKELLAEHPAELAEVEAARAARLAELRAEVEAKVAA | 0.869

(a) A28I (designed binder) MTLQELLREEALRRAEAEAFRYALELLIEKFPEQKEYLLDLAEEIESQIRSLSGVDVEDVRKFLDKEWAWVKELLAEHPAELAEVEAARAARLAELRAEVEAKVAA
(b) K66Y (designed binder) MTLQELLREEALRRAEAEAFRYALELLAEKFPEQKEYLLDLAEEIESQIRSLSGVDVEDVRKFLDYEWAWVKELLAEHPAELAEVEAARAARLAELRAEVEAKVAA
Q. Could you tell me which of these two has the smaller apparent Kd (screen) figure? First: a Second: b Respond with the label that goes with your answer.
A. b
